From: paper PMC314469

Kd values by entry
TESTED_TARGET: YPR171 peptide
ASSAY_DETAILS: SPR
OBSERVABLE: Kd (µM)

1) YFR024C SH3 domain (protein) TSSPKAVALYSFAGEESGDLPFRKGDVITILKKSDSQNDWWTGRVNGREGIFPANYVELV: 4.8
2) RVS167 SH3 domain (protein) PGVETVTALYDYQAQAAGDLSFPAGAVIEIVQRTPDVNEWWTGRYNGQQGVFPGNYVQLNKN: 16
